Target: HLA-A*26:01
Test: IEDB peptide-MHC binding, purified MHC/direct/fluorescence; filed as Kd, often an IC50 or EC50 that approximates it; bounds were set here for any values at or beyond the usual limits of such assays
Conditions: source organism: Influenza B virus (B/Chiba/447/98)
pKd: −log10 of the molar value.
endpointName: pKd

1) YSHGTGTGY : 7.70

###

Target: HLA-B*44:02
Test: IEDB peptide-MHC binding, purified MHC/competitive/radioactivity; filed as Kd, often an IC50 or EC50 that approximates it; bounds were set here for any values at or beyond the usual limits of such assays
Conditions: source organism: Lymphocytic choriomeningitis virus (strain Armstrong)
endpointName: Kd

1) IEVALRTLL : 14.6 µM
